target under test: FT (Homo sapiens, UniProt P49354+P49356)
Construct: Reactions were started by adding 40 μL of treated or untreated cell lysate; endogenous in cells; host or cells: HGPS MSCs (cell lysate)
experimental details: FT activity assay (Farnesyltransferase [3H] SPA)
Assay type: biochemical
condition notes: concentration inducing 50% of the maximum inhibiting effect of the compound
Can you tell me IC50 for the items I'm about to list?
Please state the figure in µM; there is no need to write the unit.

So what IC50 did N#CC(c1ccccn1)c1ccnc(N2CCC(O)(Cc3ccccc3)CC2)n1 (stereo not drawn) get with FT (Homo sapiens, UniProt P49354+P49356)?
0.35

So what IC50 did N#CC(c1ccncc1)c1cc(N2CCN(C(=O)c3cccs3)CC2)ncn1 (stereo not drawn) get with FT (Homo sapiens, UniProt P49354+P49356)?
9.32

So what IC50 did N#CC(c1ccccn1)c1ccnc(N2CCN(Cc3ccccc3F)CC2)n1 (stereo not drawn) get with FT (Homo sapiens, UniProt P49354+P49356)?
3.46

meta.source: patent US10654838B2
